# TEST TARGET: Follistatin-related protein 3 (Homo sapiens) (UniProt O95633)
# Sequence (O95633 whole entry, looked up): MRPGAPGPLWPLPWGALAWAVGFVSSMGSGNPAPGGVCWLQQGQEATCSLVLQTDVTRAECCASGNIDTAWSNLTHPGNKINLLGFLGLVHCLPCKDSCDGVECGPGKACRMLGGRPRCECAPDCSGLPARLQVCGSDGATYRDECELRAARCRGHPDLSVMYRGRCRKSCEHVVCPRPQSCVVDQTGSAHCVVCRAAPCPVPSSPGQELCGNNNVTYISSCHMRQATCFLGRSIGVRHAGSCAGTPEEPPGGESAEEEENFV
# METHOD SUMMARY: FSTL3 binders on small-molecule microarrays, primary screen, biochemical, small-molecule microarray, 635 nm fluorescence (AID 1105);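 also: score merges emission near 667 nm and signal to noise per printed spot across three slides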
# CONDITIONS: FSTL3 binding, higher = more signal
Short version: composite z-score at least 0.8 is Fulfilled, less is Not fulfilled.

Use the examples below as a reference point.
C=C(/C(=C/C[C@@H](OC(C)=O)c1ccc(OCCO)cc1)c1cnc2ccccc2c1)C(C)C = Not fulfilled
CCOC(=O)[C@H]1CC=C2CC1C(=O)N1CCC[C@@H]1[C@@H]2O[Si](C)(C)C(C)(C)C (stereo partly drawn) = Not fulfilled
O=C1OCCC/C=C\[C@H]2OC34C=CCN(Cn5nnc6ccccc65)C(=O)[C@H]3N(CCO)C(=O)[C@@H]4C12 (stereo partly drawn) = Not fulfilled
CCOC(=O)C[C@H]1[C@H](OC(=O)c2cc3ccccc3oc2=O)[C@@H](NC(=O)Cc2ccc(OC)cc2)c2cc(OCCCO)ccc2N1C(=O)c1ccccc1 = Not fulfilled
COCCOC(=O)N1C(=O)[C@@]2(c3cc(C#Cc4ccc(OC)cc4)ccc31)[C@H](c1ccccc1OCCO)N1[C@H](c3ccccc3)[C@H](c3ccccc3)OC(=O)[C@H]1[C@@H]2C(=O)N1CCN(c2ncccn2)CC1 = Not fulfilled
COC(=O)[C@@]1(Cc2ccccc2)[C@H]2c3cc(C(=O)N4CCCC4)n(Cc4nc5ccccc5[nH]4)c3C[C@H]2CN1C(=O)c1ccccc1 = Fulfilled

For this compound, is measured composite z-score 0.8 or higher? CC(=O)n1cc(C(O)C2C=CC3C(=O)N(C)C(=O)C3N2Nc2ccccc2)c2ccccc21 (stereo not drawn)
Fulfilled

For this compound, is measured composite z-score 0.8 or higher? O=C1C2C=CC(C(O)c3c(F)cccc3Cl)N(Nc3ccccc3)C2C(=O)N1c1ccccc1 (stereo not drawn)
Fulfilled

For this compound, is measured composite z-score 0.8 or higher? "COCCOC(=O)N1C(=O)[C@@]2(c3cc(C#CC4=CCCCC4)ccc31)[C@H](C(=O)N1CCc3cc(OC)c(OC)cc3C1)[C@H]1C(=O)O[C@H](c3ccccc3)[C@H](c3ccccc3)N1[C@@H]2c1ccc(OCCO)cc1"
Fulfilled
